Here, each record is paired with measured pIC50 data.
Biological target: human DP2 receptor (Homo sapiens)
Sequence (Q9Y5Y4 1-395): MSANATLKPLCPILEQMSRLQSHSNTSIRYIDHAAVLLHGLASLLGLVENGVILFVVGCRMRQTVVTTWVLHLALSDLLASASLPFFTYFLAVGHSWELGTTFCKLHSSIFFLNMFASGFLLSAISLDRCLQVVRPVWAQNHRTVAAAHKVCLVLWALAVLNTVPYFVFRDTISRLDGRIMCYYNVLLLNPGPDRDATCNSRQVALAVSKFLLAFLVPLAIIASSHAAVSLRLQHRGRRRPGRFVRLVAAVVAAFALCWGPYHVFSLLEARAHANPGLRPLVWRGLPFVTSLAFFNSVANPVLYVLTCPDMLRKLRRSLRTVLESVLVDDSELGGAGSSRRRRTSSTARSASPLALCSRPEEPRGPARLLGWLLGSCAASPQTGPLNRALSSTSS
pIC50: −log10 of the molar value.

A selection of reference data follows.
* C[C@@H]1[C@H](c2ccc(Cl)cc2)OC(=O)N1Cc1cc(Br)ccc1Oc1cccc(CC(=O)O)c1 | > 6.52
* Cc1ncc(-c2ccc(Oc3cccc(CC(=O)O)c3)c(CN3C(=O)O[C@H](c4ccccc4)[C@@H]3C)c2)n1C | 6.00 to 6.52

Q) Reported pIC50 for COc1ccc(CC(=O)O)cc1Oc1ccc(Cl)cc1CN1C(=O)O[C@H](c2ccccc2)[C@@H]1C : what is it?
A) > 6.52

Q) COc1ccc(CC(=O)O)cc1Oc1ccc(NC(=O)c2cccnc2)cc1CN1CCOC1=O , same question.
A) < 6.00

Q) COc1ccc(CC(=O)O)cc1Oc1ccc(C(F)(F)F)cc1CN1C(=O)O[C@H](c2ccccc2)[C@@H]1C , same question.
A) > 6.52

Q) C[C@H]1[C@@H](c2ccccc2)OC(=O)N1Cc1cc(-c2cncn2C)ccc1Oc1cccc(CC(=O)O)c1 , same question.
A) > 6.52

Q) COc1ccc(CC(=O)O)cc1Oc1ccc(-c2ccc(F)cc2)cc1CN1C(=O)O[C@H](c2ccccc2)[C@@H]1C , same question.
A) > 6.52
